Data provenance: ChEMBL document CHEMBL1131829

Biological target: Protein kinase C (PKC)
Assay: Inhibition of protein kinase C
Format: protein assay, Rattus norvegicus
measure: log10 IC50 (log10 of the value in M)
Response schema: value (number) is log10 of IC50 in units of M.

Challenge: Item: O=Cc1csc(-c2ccc(C=O)s2)c1 Test system: Protein kinase C (PKC) Read-out: log10 IC50 Value: ?
Response given: -3.00

Challenge: Item: CN1CCN(CCCN2c3ccccc3Sc3ccc(C(F)(F)F)cc32)CC1 Test system: Protein kinase C (PKC) Read-out: log10 IC50 Value: ?
Response given: -3.30

Challenge: Item: O=Cc1csc(-c2ccc(-c3cccs3)s2)c1 Test system: Protein kinase C (PKC) Read-out: log10 IC50 Value: ?
Response given: -5.30

Challenge: Item: O=Cc1csc(-c2ccc(-c3ccc(CO)s3)s2)c1 Test system: Protein kinase C (PKC) Read-out: log10 IC50 Value: ?
Response given: -4.52

Challenge: Item: O=Cc1csc(-c2ccc(-c3ccc(C=O)s3)s2)c1 Test system: Protein kinase C (PKC) Read-out: log10 IC50 Value: ?
Response given: -6.15

###

Molecular target: Protein kinase C (PKC)
Assay: Inhibition of protein kinase C
Type: protein assay, Rattus norvegicus
Below is a list of entries, each paired with its recorded IC50 value.
Answer format: numeric, M implied, no suffix.

Example cases with answers are listed next.
OCc1csc(-c2ccc(-c3cccs3)s2)c1 : 3e-06
OCc1csc(-c2ccc(-c3ccc(CO)s3)s2)c1 : 0.0003
O=Cc1ccc(-c2ccc(-c3cc(CO)cs3)s2)s1 : 3e-07

Could you now look at the following compound, please?
Challenge: Field request: IC50 | item: O=Cc1csc(-c2cccs2)c1
Response given: 0.0005

###

Target: Protein kinase C (PKC)
Assay: Inhibition of protein kinase C
Format: protein assay, Rattus norvegicus
Below is a list of entries, each paired with its recorded IC50 value.

Example cases with answers are listed next.
OCc1csc(-c2cccs2)c1 : > 0.001 M
OCc1csc(-c2ccc(CO)s2)c1 : > 0.001 M

Challenge: Item: OCc1ccsc1 Test system: Protein kinase C (PKC) Read-out: IC50 Value: ?
Response given: > 0.004 M

Challenge: Item: O=Cc1ccsc1 Test system: Protein kinase C (PKC) Read-out: IC50 Value: ?
Response given: > 0.004 M
